# System: HEK293FT dCK*-only
# measurement-description: relative growth in counter assay (no AraC = 100%, AraC + DMSO = 0%); higher = more growth rescue independent of IKZF1
# experimental-context: compound concentration: 5 uM; AraC concentration: 0.3 uM; overnight pretreatment + 4 days AraC
readout-kind: relative growth in counter assay (%)
Give bare numbers, in %.

Record excerpt, results attached:
{"compound": "Nc1nc(N)c2nc(-c3cccc(O)c3)cnc2n1", "readout-kind": "relative growth in counter assay", "obs-value": -10.5}
{"compound": "CCSc1ccc2c(c1)N(CCCN1CCN(C)CC1)c1ccccc1S2", "readout-kind": "relative growth in counter assay", "obs-value": -4.22}
{"compound": "Cc1cc(C)c(C2=NOC3C4CCC(C4)C23)c(C)c1 (stereo not given)", "readout-kind": "relative growth in counter assay", "obs-value": 1.92}

Dear colleague, could you send me relative growth in counter assay for each of the items below? Thanks.
1. O=c1c(O)c(-c2cc(O)c(O)c(O)c2)oc2cc(O)cc(O)c12
2. C[C@@H]1CC(=O)c2c(ccc3c2C(=O)c2cccc(O)c2C3=O)C1
3. C[C@H]1O[C@@H](n2cc(F)c(=O)[nH]c2=O)[C@H](O)[C@@H]1O
4. CN(Cc1cnc2nc(N)nc(N)c2n1)c1ccc(C(=O)NC(CCC(=O)O)C(=O)O)cc1 (stereo not given) [Methotrexate]
5. O=C(Nc1cc(C(F)(F)F)cc(C(F)(F)F)c1)Nc1c(Br)cc(Br)cc1-c1nnn[nH]1

1. -1.64
2. 6.7
3. -10.6
4. -30.3
5. -2.42
